This collection of values is drawn from ChEMBL document CHEMBL1201862.

- system: UniProtKB Q6QLK5
- Sequence (Q6QLK5 whole entry, the tested form may be a part): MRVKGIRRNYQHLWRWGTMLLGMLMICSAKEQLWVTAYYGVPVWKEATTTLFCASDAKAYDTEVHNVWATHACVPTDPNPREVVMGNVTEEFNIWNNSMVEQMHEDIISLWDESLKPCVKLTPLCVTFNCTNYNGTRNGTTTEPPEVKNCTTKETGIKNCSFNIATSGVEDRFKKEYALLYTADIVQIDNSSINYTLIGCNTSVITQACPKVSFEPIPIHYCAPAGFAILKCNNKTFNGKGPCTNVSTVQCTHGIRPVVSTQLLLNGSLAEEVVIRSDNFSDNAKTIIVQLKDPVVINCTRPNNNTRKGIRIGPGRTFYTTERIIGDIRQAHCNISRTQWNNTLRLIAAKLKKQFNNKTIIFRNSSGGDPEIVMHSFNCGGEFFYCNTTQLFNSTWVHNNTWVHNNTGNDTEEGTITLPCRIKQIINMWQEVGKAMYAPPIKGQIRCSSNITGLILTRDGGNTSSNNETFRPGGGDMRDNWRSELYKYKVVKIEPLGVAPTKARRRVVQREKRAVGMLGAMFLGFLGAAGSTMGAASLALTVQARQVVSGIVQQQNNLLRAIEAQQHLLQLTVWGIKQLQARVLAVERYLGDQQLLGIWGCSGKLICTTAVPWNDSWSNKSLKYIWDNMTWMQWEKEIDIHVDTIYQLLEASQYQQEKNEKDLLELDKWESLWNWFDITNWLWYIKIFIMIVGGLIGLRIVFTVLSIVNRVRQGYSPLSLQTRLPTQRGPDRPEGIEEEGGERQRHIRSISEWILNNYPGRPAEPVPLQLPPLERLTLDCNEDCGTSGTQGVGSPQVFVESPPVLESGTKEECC
- experimentDescription: cell-free HIV fusion peptide-binding blockers – biochemical, uHTS, fluorescence dequenching, […] (AID 1986)
Active and inactive are the calls of the source. Rule as the data show it: actives have a measured IC50 and inactives only a lower limit.
Listed molecules paired with reported IC50
measuredAttribute: IC50

{"structureNotation": "Cc1cc(/C=c2\\sc3nc4ccccc4n3c2=O)c(C)n1-c1ccc(C(=O)O)cc1", "measuredAttribute": "IC50", "result": "25.8 µM (active)"}
{"structureNotation": "CCc1nnc(NS(=O)(=O)c2ccc(N/C=C(\\C=O)c3nc4cc(Cl)ccc4o3)cc2)s1", "measuredAttribute": "IC50", "result": "19.7 µM (active)"}
{"structureNotation": "Cc1ccc(S(=O)(=O)NC2=NC(=O)/C(=C/c3cc([N+](=O)[O-])ccc3O)S2)cc1", "measuredAttribute": "IC50", "result": "13.5 µM (active)"}
{"structureNotation": "O=C(Nc1ccc(Br)cc1C(=O)O)c1ccc2c(c1)C(=O)N(Cc1ccccc1)C2=O", "measuredAttribute": "IC50", "result": "13.5 µM (active)"}
